# target.entity: HLA-A*02:01
# procedure.text: IEDB peptide-MHC binding, purified MHC/competitive/fluorescence; filed as Kd, often an IC50 or EC50 that approximates it; bounds were set here for any values at or beyond the usual limits of such assays
# measurement.context: source organism: Orthohantavirus tulaense
pKd: −log10 of the molar value.
result.type: pKd

Request: Under HLA-A*02:01, report pKd for `FGAAVSLLF`
Response: ≤ 4.70

* * *

# target.entity: HLA-A*24:03
# procedure.text: IEDB peptide-MHC binding, purified MHC/direct/fluorescence; filed as Kd, often an IC50 or EC50 that approximates it; bounds were set here for any values at or beyond the usual limits of such assays
# measurement.context: source organism: Zaire ebolavirus
result.type: pKd
When answering, recall that pKd equals minus log10 of the concentration in mol/L, and write that number alone.

Request: Specify measured pKd for `RYEFTAPFI` .
Response: 9.70

* * *

# target.entity: HLA-B*08:02
# procedure.text: IEDB peptide-MHC binding, purified MHC/direct/fluorescence; filed as Kd, often an IC50 or EC50 that approximates it; bounds were set here for any values at or beyond the usual limits of such assays
# measurement.context: source organism: Orthomarburgvirus marburgense
result.type: Kd

Request: Specify measured Kd for `KLDFIRNTK` .
Response: ≥ 20 µM

* * *

# target.entity: HLA-B*40:01
# procedure.text: IEDB peptide-MHC binding, purified MHC/direct/fluorescence; filed as Kd, often an IC50 or EC50 that approximates it; bounds were set here for any values at or beyond the usual limits of such assays
# measurement.context: source organism: Vibrio vulnificus
result.type: Kd

Request: Under HLA-B*40:01, report Kd for `QSDIAGAIH`
Response: ≥ 20 µM

* * *

# target.entity: HLA-B*48:01
# procedure.text: IEDB peptide-MHC binding, purified MHC/direct/fluorescence; filed as Kd, often an IC50 or EC50 that approximates it; bounds were set here for any values at or beyond the usual limits of such assays
# measurement.context: source organism: Orthohantavirus andesense
pKd: −log10 of the molar value.
result.type: pKd

Request: Specify measured pKd for `SIKFKRKLM` .
Response: ≤ 4.70

* * *

The entries below come with measured pKd values attached.
# target.entity: HLA-B*46:01
# procedure.text: IEDB peptide-MHC binding, purified MHC/direct/fluorescence; filed as Kd, often an IC50 or EC50 that approximates it; bounds were set here for any values at or beyond the usual limits of such assays
# measurement.context: source organism: West Nile virus
pKd: −log10 of the molar value.

Below, 2 sequences whose answers are already recorded.
{"construct.sequence": "AMFEEQNQW", "pKd": "≤ 4.70"}
{"construct.sequence": "FTRYRKEAI", "pKd": "≤ 4.70"}

Shifting focus to the sequence that follows.
Request: Specify measured pKd for `HSRRSRRSL` .
Response: ≤ 4.70

* * *

# target.entity: HLA-A*23:01
# procedure.text: IEDB peptide-MHC binding, purified MHC/competitive/radioactivity; filed as Kd, often an IC50 or EC50 that approximates it; bounds were set here for any values at or beyond the usual limits of such assays
# measurement.context: source organism: Mammarenavirus guanaritoense
The entries below come with measured Kd values attached.
The answer is to be given in µM; state only the numeric part.

Below, 2 sequences whose answers are already recorded.
{"construct.sequence": "LKILVLSIL", "result.type": "Kd", "scale.unit": "µM", "experimental.value": 11.1}
{"construct.sequence": "ISEPTIHLV", "result.type": "Kd", "scale.unit": "µM", "experimental.value": 15.4}

Shifting focus to the sequence that follows.
Request: Specify measured Kd for `VLCSSSPTI` .
Response: 0.457

* * *

# target.entity: HLA-B*07:02
# procedure.text: IEDB peptide-MHC binding, purified MHC/direct/fluorescence; filed as Kd, often an IC50 or EC50 that approximates it; bounds were set here for any values at or beyond the usual limits of such assays
# measurement.context: source organism: Escherichia coli
result.type: pKd
When answering, recall that pKd equals minus log10 of the concentration in mol/L, and write that number alone.

Request: Under HLA-B*07:02, report pKd for `WCRVGRGTI`
Response: 5.33

* * *

# target.entity: HLA-A*01:01
# procedure.text: IEDB peptide-MHC binding, purified MHC/competitive/fluorescence; bounds were set here for any values at or beyond the usual limits of such assays
# measurement.context: source organism: Mus musculus
result.type: IC50 (nM)
The answer is to be given in nM; state only the numeric part.

Request: Specify measured IC50 for `FSSCPVAY` .
Response: 1940

* * *

# target.entity: HLA-B*57:01
# procedure.text: IEDB peptide-MHC binding, purified MHC/direct/fluorescence; filed as Kd, often an IC50 or EC50 that approximates it; bounds were set here for any values at or beyond the usual limits of such assays
# measurement.context: source organism: Orthohantavirus andesense
result.type: Kd

Request: Under HLA-B*57:01, report Kd for `SIKFKRKLM`
Response: ≥ 20 µM

* * *

# target.entity: HLA-B*15:01
# procedure.text: IEDB peptide-MHC binding, purified MHC/competitive/fluorescence; filed as Kd, often an IC50 or EC50 that approximates it; bounds were set here for any values at or beyond the usual limits of such assays
# measurement.context: source organism: Salmonella enterica subsp. enterica serovar Typhi
The entries below come with measured Kd values attached.
The answer is to be given in µM; state only the numeric part.

Request: Specify measured Kd for `FTAMQALDY` .
Response: 0.0986

Request: Specify measured Kd for `MTAAQIRRY` .
Response: 0.168

Request: Specify measured Kd for `MSAIVSCRY` .
Response: 0.0512

* * *

# target.entity: HLA-A*02:12
# procedure.text: IEDB peptide-MHC binding, purified MHC/direct/fluorescence; filed as Kd, often an IC50 or EC50 that approximates it; bounds were set here for any values at or beyond the usual limits of such assays
# measurement.context: source organism: Ebola virus Yambio0403
result.type: Kd

Request: Specify measured Kd for `RYEFTAPFI` .
Response: ≥ 20 µM

* * *

# target.entity: HLA-B*40:01
# procedure.text: IEDB peptide-MHC binding, purified MHC/competitive/radioactivity; filed as Kd, often an IC50 or EC50 that approximates it; bounds were set here for any values at or beyond the usual limits of such assays
# measurement.context: source organism: Lymphocytic choriomeningitis virus (strain Armstrong)
result.type: pKd
When answering, recall that pKd equals minus log10 of the concentration in mol/L, and write that number alone.

Request: Specify measured pKd for `AEILPDTTY` .
Response: 5.22

* * *

# target.entity: HLA-B*46:01
# procedure.text: IEDB peptide-MHC binding, purified MHC/competitive/fluorescence; filed as Kd, often an IC50 or EC50 that approximates it; bounds were set here for any values at or beyond the usual limits of such assays
# measurement.context: source organism: Rickettsia akari str. Hartford
pKd: −log10 of the molar value.
result.type: pKd

Request: Specify measured pKd for `FTARIIIFS` .
Response: ≤ 4.70

* * *

# target.entity: HLA-B*27:03
# procedure.text: IEDB peptide-MHC binding, purified MHC/direct/fluorescence; filed as Kd, often an IC50 or EC50 that approximates it; bounds were set here for any values at or beyond the usual limits of such assays
# measurement.context: source organism: Giardia lamblia ATCC 50803
result.type: Kd

Request: Specify measured Kd for `MTYLDGHPV` .
Response: ≥ 20 µM

* * *

# target.entity: HLA-B*35:01
# procedure.text: IEDB peptide-MHC binding, purified MHC/direct/fluorescence; filed as Kd, often an IC50 or EC50 that approximates it; bounds were set here for any values at or beyond the usual limits of such assays
# measurement.context: source organism: Brucella melitensis
result.type: Kd (nM)
The answer is to be given in nM; state only the numeric part.

Request: Specify measured Kd for `TPPVDRMAV` .
Response: 1070

* * *

# target.entity: HLA-A*11:01
# procedure.text: IEDB peptide-MHC binding, purified MHC/competitive/fluorescence; filed as Kd, often an IC50 or EC50 that approximates it; bounds were set here for any values at or beyond the usual limits of such assays
# measurement.context: source organism: Listeria monocytogenes serotype 4b str. CLIP 80459
result.type: Kd (nM)
The answer is to be given in nM; state only the numeric part.

Request: Specify measured Kd for `YTYDLAEYR` .
Response: 21.3

* * *

# target.entity: HLA-A*11:01
# procedure.text: IEDB peptide-MHC binding, purified MHC/direct/fluorescence; filed as Kd, often an IC50 or EC50 that approximates it; bounds were set here for any values at or beyond the usual limits of such assays
# measurement.context: source organism: Vibrio cholerae
result.type: Kd

Request: Specify measured Kd for `EVNAHIHTM` .
Response: ≥ 20 µM

* * *

# target.entity: HLA-A*29:02
# procedure.text: IEDB peptide-MHC binding, purified MHC/direct/fluorescence; filed as Kd, often an IC50 or EC50 that approximates it; bounds were set here for any values at or beyond the usual limits of such assays
# measurement.context: source organism: Mycobacterium tuberculosis str. Haarlem
result.type: Kd

Request: Specify measured Kd for `MAVTAAPYI` .
Response: ≥ 20 µM
